Compiled notes: published IC50 values involving Cytochrome P450 2D6 (Homo sapiens).
Write the answer as a number in µM, unit excluded.

For CN1C[C@H](C(=O)Nc2ccc(Cl)cc2)[C@@H](c2ccc(/C=C/C(=O)Nc3ccccc3N)cc2F)C1 (racemic) , what is its reported IC50?
9

For Cn1cncc1-c1c[nH]c2ccc(C(N)=O)cc12 , what is its reported IC50?
27.6

For CC[C@@H](NC(=O)c1ccc2c(c1)ncn2Cc1ncc(F)cc1F)c1ccccc1 , what is its reported IC50?
65

For N=C(N)NC(=O)c1ccc(C2CCN(C(=O)c3ccc(C(N)=O)cc3)CC2)c(C(F)(F)F)c1 , what is its reported IC50?
12

For Cc1cccc(C)c1CNc1nc(N2CCCC2=O)cc2c(C)c(C)[nH]c12 , what is its reported IC50?
1.9

For O=C1c2ccccc2C(O)C1C1c2ccccc2C=Cc2ccccc21 (centres undefined) , what is its reported IC50?
60
